Compiled from multiple publications: Ki readings for Histamine H3 receptor (Homo sapiens).

# smilesText, assaySystem, valueObserved
data = [
    ("Cn1ncc(Oc2ccc3c(c2)CCN(C2CCC2)CC3)cc1=O", "Histamine H3 receptor (Homo sapiens)", "< 0.1 µM"),
]

Provide the documented Ki with Histamine H3 receptor (Homo sapiens) as the system for O=C(CN1CCOCC1)c1ccc(OCCCN2CCCC2)cc1
0.101 to 0.5 µM

Provide the documented Ki with Histamine H3 receptor (Homo sapiens) as the system for O=C(CN1CCOCC1)c1ccc(OCCCN2CCCCC2)cc1F
0.101 to 0.5 µM

Provide the documented Ki with Histamine H3 receptor (Homo sapiens) as the system for Nc1nccc(N[C@H]2CC[C@H](N)CC2)n1
> 0.363 µM

----------
Compiled from multiple publications: Ki readings for UniProt Q9Y5N1.
readout: Ki (nM)

Illustrative cases are given below, each with its answer.
# compound, Ki [nM]
records = [
    ("CCCCN(CCCC)CCCOc1ccc(-c2cn3cccc(C)c3n2)cc1", 500),
    ("CCCN(CCC)CCCOc1ccc(-c2cn3cccc(C)c3n2)cc1", 44),
]

a. C[C@H]1COCCN1CCCOc1ccc2c(c1)CN(C)CC2c1ccc(C#N)cc1 (stereo partly drawn)
b. COc1ccc(C2CN(C)Cc3cc(OCC4CCN(CC(C)(C)O)CC4)ccc32)cc1 (stereo not drawn)
c. COCCN(CCCOc1ccc2c(c1)CN(C)CC2c1ccc(OC)cc1)CCOC (stereo not drawn)
d. CCCN1CCC(COc2ccc3c(c2)CN(C)CC3c2ccc(OC)c(Cl)c2)CC1 (stereo not drawn)
e. COc1ccc(C2CN(C)Cc3cc(OCC4CCNCC4)ccc32)cc1Cl (stereo not drawn)
Put the items in sequence by Ki, from largest down. The reply should contain the labels ordered as requested.
c, e, b, d, a
(c: 273 nM, e: 183 nM, b: 34 nM, d: 12 nM, a: 2 nM)

1. c1cc(CN2CCCC2)ccc1Cc1ccc(CN2CCCC2)cc1
2. CCN(C)C1CCN(c2ccc(CN3CCOCC3)cc2)CC1
3. C[C@H]1COCCN1CCCOc1ccc2c(c1)CN(C)CC2c1ccc(SC(F)(F)F)cc1 (stereo partly drawn)
Put the items in sequence by Ki, from largest down. The reply should contain the labels ordered as requested.
3, 2, 1

----------
Compiled from multiple publications: pKi readings for Histamine H3 receptor (Homo sapiens).
pKi: −log10 of the molar value.

# compound, pKi
measured = [
    ("C[C@@H]1CCCN1CCCOc1ccc(C(=O)CN2CCN(C(=O)c3cccn3C)CC2)cc1", "7.00 to 10.00"),
    ("CC(C)C(=O)N1CCN(CC(=O)c2ccc(OCCCN3CCC[C@H]3C)c(F)c2)CC1", "7.00 to 10.00"),
    ("CN1CCN(c2cc(C(=O)c3ccccc3)c(C(F)(F)F)nn2)CC1", "< 5.00"),
    ("O=C1CN(CCCOc2ccc(C(=O)CN3CCOCC3)cc2)CCN1", "< 6.00"),
    ("CC1CC(=O)NN=C1c1ccc2c(c1)CC1(CCN(C3CCC3)CC1)O2 (stereo not shown)", "> 6.70"),
    ("O=C(CN1CCOCC1)c1ccc(OCCCN2Cc3ccccc3C2)cc1", "< 6.00"),
    ("COc1cc(C(=O)CN2CCN(C(=O)c3ccccc3)CC2)ccc1OCCCN1CCC[C@H]1C", "6.30 to 7.00"),
    ("c1cn(Cc2ccc(Cc3ccc(Cn4ccnc4)cc3)cc2)cn1", 6.82),
]

Recorded pKi of O=C1NN=C(c2ccc3c(c2)CCN(C2CCC2)CC3)C2CCCC12 (stereo not shown) , please.
> 7.00

----------
pKi: −log10 of the molar value.
Compiled from multiple publications: pKi readings for Histamine H3 receptor (Homo sapiens, UniProt Q9Y5N1).
readout: pKi

# compound, assaySystem, pKi
measured = [
    ("CCN(CC)CCNc1ccc(-c2cn3cccc(C)c3n2)cc1", "Histamine H3 receptor (Homo sapiens, UniProt Q9Y5N1)", 8.40),
]

I. COc1ccc(C2CN(C)Cc3cc(OCCC4CCCN4C)ncc32)cc1 (stereo not shown)
II. CSc1nc2cc(Cl)ccc2n1C1CCN(C(=O)C2CCN(Cc3cnc(N)nc3)CC2)CC1
III. COc1ccc(C2CN(C)Cc3cc(OCCCN4CCN(C(=O)C5CCC5)CC4)ccc32)cc1 (stereo not shown)
IV. CN1CCN(CCCOc2ccc(-c3cc4cc(Cl)ccc4n3S(C)(=O)=O)cc2)CC1
V. CN(C)CCC(Oc1ccc(Cl)cc1)c1ccc(C#CCCN2CCCCC2)cc1 (stereo not shown)
Put the items in sequence by pKi, from largest down. The reply should contain the labels ordered as requested.
I, II, V, III, IV
(I: 8.40, II: 8.15, V: 7.68, III: 6.27, IV: 5.52)

----------
Compiled from multiple publications: Ki readings for Histamine H3 receptor (Homo sapiens).

# smilesText, valueObserved
records = [
    ("C[C@@H]1CCCN1CCCOc1ccc(C(=O)CN2CCN(C(=O)c3ccccc3)CC2)c(F)c1", "0.1 to 100 nM"),
    ("O=c1ccc(-c2ccc(Oc3ccc4c(c3)CCN(C3CCC3)CC4)nc2)n[nH]1", "< 100 nM"),
    ("C[C@@H]1CCCN1CCCOc1ccc(C(=O)CN2CCN(C(=O)OCc3ccccc3)CC2)cc1", "0.1 to 100 nM"),
    ("Cc1cc(C(=O)CN2CCN(C(=O)c3ccccc3)CC2)ccc1OCCCN1CCC[C@H]1C", "0.1 to 100 nM"),
    ("Cc1cc(=O)[nH]nc1-c1ccc2c(c1)CCC1(CCN(C3CCC3)CC1)O2", "< 200 nM"),
]

Provide the documented Ki with Histamine H3 receptor (Homo sapiens) as the system for C[C@@H]1CCCN1CCCOc1ccc(C(=O)CN2CCC(F)(F)CC2)cc1
0.1 to 100 nM

Provide the documented Ki with Histamine H3 receptor (Homo sapiens) as the system for O=c1[nH]nc(-c2ccc3c(c2)COC2(CCN(C4CCC4)CC2)O3)c2ccccc12
< 200 nM
